Measured Euclidean distance accompanies every entry in the list below.
- System: DU145
- ASSAY_NAME: Euclidean distance of Cell Painting phenotypic profile (signed KS, 77 features) to DMSO centroid (dimensionless distance); 5 or 10 uM (library dependent); higher = stronger phenotypic change vs DMSO (phenoactivity)
- PARTICULARS: 48 h

COMPOUND	Euclidean distance
C[C@H]1O[C@@H](O[C@H]2[C@@H](O)C[C@H](O[C@H]3[C@@H](O)C[C@H](O[C@H]4CC[C@@]5(C)[C@H](CC[C@@H]6[C@@H]5C[C@@H](O)[C@]5(C)[C@@H](C7=CC(=O)OC7)CC[C@]65O)C4)O[C@@H]3C)O[C@@H]2C)C[C@H](O)[C@@H]1O	6.87
Nc1nc(Cl)nc2c1ncn2[C@@H]1O[C@H](CO)[C@@H](O)[C@@H]1F	2.96
COC(=O)c1cc(OC)c2c(c1-c1c(CO)cc(OC)c3c1OCO3)OCO2	2.55
O=C(/C=C/c1cccc(S(=O)(=O)Nc2ccccc2)c1)NO	2.38
C/C1=C2N=C(/C=C3N=C(/C(C)=C4\[N-]C(C(CC(N)=O)C4(C)CCC(=O)NCC(C)OP(=O)([O-])OC4C(CO)OC(n5cnc6cc(C)c(C)cc65)C4O)C4(C)N=C1C(CCC(N)=O)C4(C)CC(N)=O)C(CCC(N)=O)C\3(C)C)C(CCC(N)=O)C/2(C)CC(N)=O.[CH3-].[Co+3] (stereo not given)	1.12
